These entries and their values trace back to PubChem BioAssay (NCI).

- Test system: COLO 205 colon
- measurement protocol: NCI tumour cell line growth inhibition, 48 h

molecule	TGI, µM
C#CCOc1cccc(Nc2ncnc3c(NC(=O)C=C)cccc23)c1	73.4
COc1ccc(/C(C)=C(\c2ccc(OCCN3CCCCCC3)cc2)c2ccc(OC(=O)C3CCCCC3)cc2)cc1	4.06
C=CC(=O)N1CN(C(=O)C=C)CN(C(=O)C=C)C1	3.59
CC(O)CCCOC(c1ccccc1)(c1ccccc1)c1ccccc1 (configuration not stated)	39.3
ClC(Cl)=C1C(=C(Cl)Cl)C(Cl)(Cl)C1(Cl)Cl	10.8
Oc1[nH]c2ccc(Br)cc2c1N=NC(=S)Nc1ccc(F)cc1	22.4
O=C(c1ccco1)c1c(C(F)(F)F)n([O-])c2ccc(C(F)(F)F)cc2[n+]1=O	0.987
COC(=O)c1cc2c(o1)-c1nccc3c1c(nc1ccccc13)C2=O	29.3
CCCCn1cnc2c(c(CC#N)nn2-c2ccccc2)c1=N	92.8
